assayed-system: GDP-bound KRAS protein (aa 1-169), containing both G12C and C118A amino acid substitutions (Homo sapiens (Human), UniProt P01116, C118A/G12C)
Sequence (P01116 other isoform, or with tags, fused parts or gaps G12C/C118A): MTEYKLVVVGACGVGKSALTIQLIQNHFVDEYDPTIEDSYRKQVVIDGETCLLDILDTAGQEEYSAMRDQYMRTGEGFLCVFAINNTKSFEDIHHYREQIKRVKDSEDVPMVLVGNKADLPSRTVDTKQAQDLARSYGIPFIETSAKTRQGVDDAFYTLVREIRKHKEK
assay-name: Coupled nucleotide exchange assay (SOS-mediated nucleotide exchange, AlphaScreen)
Type: biochemical
condition-set: 5 min compound pre-incubation
observation-type: Coupled exchange IC50 (5 min; μM) (µM)

Would you please look over these solved cases?
C=CC(=O)N1C[C@H](C)N(c2nc(=O)n(-c3c(C)nc(Cl)nc3C(C)C)c3nc(-c4ccccc4F)c(Cl)cc23)C[C@H]1C (single isomer, unassigned) [Example 191-2]
0.079
C=CC(=O)N1C[C@H](C)N(c2nc(=O)n(-c3c(C(C)C)cccc3[S+](C)[O-])c3nc(-c4ccccc4F)c(Cl)cc23)C[C@H]1C (single isomer, unassigned) [Example 209-2]
1.34
C=CC(=O)N1C[C@H](C)N(c2nc(=O)n(-c3ccc(S(C)(=O)=O)cc3C(C)C)c3nc(-c4ccccc4F)c(Cl)cc23)C[C@H]1C [Example 208]
0.231

a = C=CC(=O)N1C[C@H](C)N(c2nc(=O)n(-c3c(C(C)C)cccc3[S+](C)[O-])c3nc(-c4ccccc4F)c(Cl)cc23)C[C@H]1C (some centres unmarked) [Example 103-3]
b = C=CC(=O)N1C[C@H](C)N(c2nc(=O)n(-c3c(C)nc(N(C)C)nc3C(C)C)c3nc(-c4ccccc4F)c(Cl)cc23)C[C@H]1C (single isomer, unassigned) [Example 196]
Given a and b , report the one with the higher recorded Coupled exchange IC50 (5 min; μM). Identify your pick by its label. a

----------
assayed-system: GDP-bound KRAS protein (aa 1-169), containing both G12C and C118A amino acid substitutions (Homo sapiens (Human), UniProt P01116, C118A/G12C)
assay-name: Coupled nucleotide exchange assay (SOS-mediated nucleotide exchange, AlphaScreen)
Format: biochemical
condition-set: read-out: Coupled exchange IC50 (5 min; μM); 5 min compound pre-incubation
observation-type: IC50 (µM)
Response body: numeric value in µM, unit text excluded.

Reference set (4 entries):
C=CC(=O)N1C[C@H](C)N(c2nc(=O)n(-c3c(C(C)C)nc(OC)nc3C(C)C)c3nc(-c4ccccc4F)c(Cl)cc23)C[C@H]1C
0.062
C=CC(=O)N1C[C@H](C)N(c2nc(=O)n(-c3c(C)cc(CN(C)C)cc3C(C)C)c3nc(-c4c(N)cccc4F)c(F)cc23)C[C@H]1C
2.81
C=CC(=O)N1C[C@H](C)N(c2nc(=O)n(-c3c(C)ccnc3C(C)C)c3nc(-c4c(F)cccc4NC(=O)C4CC4)c(Cl)cc23)C[C@H]1C (atropisomer, axis not shown; (M))
0.008
C=CC(=O)N1C[C@H](C)N(c2nc(=O)n(-c3c(C)nc(C)nc3C(C)C)c3nc(-c4ccccc4F)c(Cl)cc23)C[C@H]1C
0.056

Then this molecule:
Sample C=CC(=O)N1C[C@H](C)N(c2nc(=O)n(-c3c(C)ccnc3C(C)C)c3nc(-c4cccc(F)c4)c(Cl)cc23)C[C@H]1C (atropisomer, axis not shown; (M)) — what was its IC50? 0.161

----------
Entries and their measured IC50 follow.
assayed-system: GDP-bound KRAS protein (aa 1-169), containing both G12C and C118A amino acid substitutions (Homo sapiens (Human), UniProt P01116, C118A/G12C)
assay-name: Coupled nucleotide exchange assay (SOS-mediated nucleotide exchange, AlphaScreen)
Assay type: biochemical
condition-set: read-out: Coupled exchange IC50 (5 min; μM); 5 min compound pre-incubation
Answer with a number only, understood to be in µM.

Take a look at these entries with their results.
C=CC(=O)N1CCN(c2nc(=O)n(CC(C)(C)C)c3nc(-c4ccccc4F)c(Cl)cc23)CC1CC#N (stereo not drawn) [Example 145-1]
2.07
C=CC(=O)N1C[C@H](C)N(c2nc(=O)n(-c3c(N(C)C)ccnc3C(C)C)c3nc(-c4ccccc4F)c(Cl)cc23)C[C@H]1C (single isomer, unassigned) [Example 55-51-2]
0.07

Next compound, please.
For the compound shown here, Cc1ccnc(C(C)C)c1-n1c(=O)nc(N2C[C@@H](C)N(C(=O)C#CCN(C)C)C[C@@H]2C)c2cc(F)c(-c3ccccc3F)nc21 [Example 119-2] , give the reported IC50. 0.33
